settings: in ethanol, 293.15 K
Examples of compounds with documented solubility (mole fraction) follow.
Property measured: solubility (mole fraction)

1) CC(=O)c1cccc([N+](=O)[O-])c1
0.00993
2) CC(=O)c1ccc([N+](=O)[O-])cc1
0.0123

----------
conditions: in toluene, 308.15 K
Below is a list of entries, each paired with its recorded solubility (mole fraction) value.
Property measured: solubility (mole fraction)

1. CC(=O)c1ccc([N+](=O)[O-])cc1
0.195
2. CC(=O)c1cccc([N+](=O)[O-])c1
0.2

----------
# solubility (mole fraction) per entry
settings: in cyclohexane, 293.15 K
Property measured: solubility (mole fraction)

1. CC(=O)c1ccc([N+](=O)[O-])cc1
0.00259
2. CC(=O)c1cccc([N+](=O)[O-])c1
0.00204
